test system: 435261-313-R-J1-PDC complex spheroid viability; assay: Anticancer human tumor 435261-313-R-J1-PDC patient-derived colon adenocarcinoma cell line growth inhibition [GQUAD]; conditions: curve of first compound; second compound 0.0316 µM
quantity-kind: IC50 (nM)
Answer in nM, number only, no unit symbol.

Solved entries (count: 2):
compound	IC50 (nM)
C#Cc1c(F)ccc2cc(O)cc(-c3ncc4c(N5CC6CCC(C5)N6)nc(OCC56CCCN5CC(F)C6)nc4c3F)c12 (stereo not drawn) + Cc1cnc(CNC(=O)c2c(=O)c3ccc(N4CCCN(C)CC4)nc3n3c2sc2ccccc23)cn1	1840
Cc1[nH]c2ccccc2c1CCNCc1ccc(/C=C/C(=O)NO)cc1 + CN(C)c1ccc(Nc2c3ccc(NC(=O)CCN4CCCC4)cc3nc3cc(NC(=O)CCN4CCCC4)ccc23)cc1	80.3

Read the next record carefully.
INPUT: Please give the measured IC50 for this compound: Cc1[nH]c2ccccc2c1CCNCc1ccc(/C=C/C(=O)NO)cc1 + Cc1[nH]c2ccc(F)cc2c1-c1nc2c3cccnc3c3ncccc3c2[nH]1
OUTPUT: 97.9

---

Below: a set of entries, each annotated with reported viability, T/C.
tested on: 435261-313-R-J1-PDC complex spheroid viability; test: Anticancer human tumor 435261-313-R-J1-PDC cell line growth inhibition [GQUAD]; settings: second compound 10 µM; first compound 0.00316 µM; stronger effect = lower value;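 also: spheroids exposed to the agents for seven days before readout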;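 as to viability, T/C: percent of vehicle control viability with DMSO wells as 100%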
Answer in %, number only, no unit symbol.

molecule	viability, T/C / %
Cc1[nH]c2ccccc2c1CCNCc1ccc(/C=C/C(=O)NO)cc1 + Cc1[nH]c2ccc(F)cc2c1-c1nc2c3cccnc3c3ncccc3c2[nH]1	28.2
CCc1c2c(nc3ccc(O)cc13)-c1cc3c(c(=O)n1C2)COC(=O)[C@]3(O)CC + Cc1cnc(CNC(=O)c2c(=O)c3ccc(N4CCCN(C)CC4)nc3n3c2sc2ccccc23)cn1	0.14
Cn1ncnc1[C@H]1c2n[nH]c(=O)c3cc(F)cc(c23)N[C@@H]1c1ccc(F)cc1 + Cc1[nH]c2ccc(F)cc2c1-c1nc2c3cccnc3c3ncccc3c2[nH]1	32.4
CC[C@@]1(O)C(=O)OCc2c1cc1n(c2=O)Cc2cc3c(CN(C)C)c(O)ccc3nc2-1 + CN(C)c1ccc(Nc2c3ccc(NC(=O)CCN4CCCC4)cc3nc3cc(NC(=O)CCN4CCCC4)ccc23)cc1	40.5
CCc1c2c(nc3ccc(O)cc13)-c1cc3c(c(=O)n1C2)COC(=O)[C@]3(O)CC + Cc1[nH]c2ccc(F)cc2c1-c1nc2c3cccnc3c3ncccc3c2[nH]1	18.8

Read the next record carefully.
INPUT: Please give the measured viability, T/C for this molecule: Cn1ncnc1[C@H]1c2n[nH]c(=O)c3cc(F)cc(c23)N[C@@H]1c1ccc(F)cc1 + Cc1cnc(CNC(=O)c2c(=O)c3ccc(N4CCCN(C)CC4)nc3n3c2sc2ccccc23)cn1
OUTPUT: 11.3

---

tested on: 435261-313-R-J1-PDC complex spheroid viability; assay: Anticancer human tumor 435261-313-R-J1-PDC cell line growth inhibition [GQUAD]; conditions: second compound 3.16 µM; first compound 1 µM; stronger effect = lower value;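 also: spheroids exposed to the agents for seven days before readout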;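 as to viability, T/C: percent of vehicle control viability with DMSO wells as 100%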
quantity-kind: viability, T/C (%)
Answer in %, number only, no unit symbol.

INPUT: Please give the measured viability, T/C for this molecule: COc1ccc([C@@H](O)c2cc(-c3ncnc4cc(N5CCOCC5)ccc34)c(F)cc2Cl)nn1 + CN(C)c1ccc(Nc2c3ccc(NC(=O)CCN4CCCC4)cc3nc3cc(NC(=O)CCN4CCCC4)ccc23)cc1
OUTPUT: 30

INPUT: Moving on to the next molecule: CC1COCCN1c1cc(C2(S(C)(=N)=O)CC2)nc(-c2ccnc3[nH]ccc23)n1 (stereo unspecified) + Cc1cnc(CNC(=O)c2c(=O)c3ccc(N4CCCN(C)CC4)nc3n3c2sc2ccccc23)cn1
OUTPUT: 18.6

INPUT: Moving on to the next molecule: Cc1cccc(N(C)C(=O)C2C(O)CCN2c2nc(C)cc(C(F)(F)F)c2C#N)c1 (stereo unspecified) + Cc1[nH]c2ccc(F)cc2c1-c1nc2c3cccnc3c3ncccc3c2[nH]1
OUTPUT: 44.9

INPUT: Moving on to the next molecule: CC1COCCN1c1cc(C2(S(C)(=N)=O)CC2)nc(-c2ccnc3[nH]ccc23)n1 (stereo unspecified) + Cc1[nH]c2ccc(F)cc2c1-c1nc2c3cccnc3c3ncccc3c2[nH]1
OUTPUT: 28.9

INPUT: Moving on to the next molecule: CCCS(=O)(=O)Nc1ccc(F)c(C(=O)c2c[nH]c3ncc(-c4ccc(Cl)cc4)cc23)c1F + Cc1[nH]c2ccc(F)cc2c1-c1nc2c3cccnc3c3ncccc3c2[nH]1
OUTPUT: 19.6

INPUT: Moving on to the next molecule: C=CCn1c(=O)c2cnc(Nc3ccc(N4CCN(C)CC4)cc3)nc2n1-c1cccc(C(C)(C)O)n1 + Cc1cnc(CNC(=O)c2c(=O)c3ccc(N4CCCN(C)CC4)nc3n3c2sc2ccccc23)cn1
OUTPUT: 4.99
